These entries and their values trace back to ChEMBL document CHEMBL5665443.

Target: Endonuclease 8-like 1 (Homo sapiens) (UniProt Q96FI4);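 note: fluorescence at 594 nm from quenched duplex DNA oligonucleotides released by NEIL1 cleavage and strand separation, reported as reduction of this enzyme activity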
Sequence (Q96FI4 whole entry): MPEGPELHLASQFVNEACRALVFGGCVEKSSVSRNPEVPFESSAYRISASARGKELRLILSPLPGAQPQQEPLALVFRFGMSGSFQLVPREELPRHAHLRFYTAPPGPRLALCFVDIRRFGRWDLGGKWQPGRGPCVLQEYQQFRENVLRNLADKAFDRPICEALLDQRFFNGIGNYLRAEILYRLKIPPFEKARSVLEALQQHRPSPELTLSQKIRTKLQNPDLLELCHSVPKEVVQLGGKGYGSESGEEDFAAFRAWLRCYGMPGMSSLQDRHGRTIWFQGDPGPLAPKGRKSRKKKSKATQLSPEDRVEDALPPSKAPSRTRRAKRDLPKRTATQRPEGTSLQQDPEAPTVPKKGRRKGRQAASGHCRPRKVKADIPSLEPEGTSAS
Settings: Compound Concentration 10.0 uM, Hit No
Description: Inhibition of NEIL1 by quantifying inhibition of NEIL1-mediated cleavage and dissociation of quenched duplex DNA oligonucleotides, measured as fluorescence at 594 nm.
measured-metric: inhibition (%)
Provide only the numeric value, understood in %.

# return recorded inhibition for input O=C(N[C@H]1CCCCC/C=C\C2C[C@@]2(C(=O)O)NC(=O)[C@@H]2C[C@@H](Oc3ccncc3)CN2C1=O)OC1CCCC1 (stereo partly drawn)
2.74

// fetch inhibition given entry Cc1nc[nH]c1CCN
-5.39

For the molecule CCN(Cc1ccncc1)C(=O)C(CO)c1ccccc1 (stereo not drawn) , give its measured inhibition value.
-2.58

Specify reported inhibition for the molecule shown: CNC(=O)[C@H]1O[C@@H](n2cnc3c(NCc4cccc(I)c4)ncnc32)[C@H](O)[C@@H]1O
-7.1

Give the reported inhibition for this molecule. O=c1cc(-c2cc(F)c(Cl)nc2Cl)[nH]c2c(-c3ccccc3)c(C(F)(F)F)nn12
-6.07

Using the record for FC(F)(F)c1c(N2CCC(c3ccccc3)CC2)ccn2c(CC3CC3)nnc12 , state its measured inhibition.
-4.5

Fill in reported inhibition for this entry: Cc1ccccc1C#Cc1ccc(CCC(=O)O)cc1
-4.44

Name the recorded inhibition of the item NC1(c2ccc(-c3nc4c(O)ccnn4c3-c3ccccc3)cc2)CCC1 in your answer.
-6.47
